# System: Candida albicans
# METHOD: Antimicrobial activity against Candida albicans MTCC227 assessed as zone diameter at 100 ug/ml after 24 hrs incubation by agar diffusion as say cup method
# Format: functional
# APPLIED CONDITIONS: MTCC227, 24 h, read-out: DIZ
PROPERTY NAME: zone of inhibition at 100 µg/mL (mm)

1. O=P(OCc1ccccc1)(OCc1ccccc1)[Se]c1ccccc1 : 25.9
2. CCOP(=O)(OCC)[Se]c1ccccc1 : 34
3. O=P(OCc1ccccc1)(OCc1ccccc1)Sc1ccccc1 : 28.1
4. CCOP(=O)(OCC)Sc1ccccc1 : 26.4
5. COP(=O)(OC)[Se]c1ccccc1 : 28.3
6. CC(C)OP(=O)(OC(C)C)[Se]c1ccccc1 : 38.6
